Attribute: AUC(0-inf)
- ASSAY_SUMMARY: Plasma pharmacokinetics after single bolus intraperitoneal administration
- Format: in vivo, C57B16 mice
- EXPERIMENTAL_PARAMETERS: C57B16, mouse, Table 3, male mice, IP 3 mg/kg
Where a name gives a salt, the structure may show the parent alone.

# COMPOUND, AUC(0-inf)
measured = [
    ("c1ccc2c(-c3cnn4cc(-c5ccc(N6CCNCC6)cc5)ccc34)ccnc2c1 [37•HCl]", "207 ng·h/mL"),
    ("COC1(c2ccc(-c3cnc4c(-c5ccnc6ccccc56)cnn4c3)cc2)CCNCC1 [44•HCl]", "583 ng·h/mL"),
]

====

- ASSAY_SUMMARY: Plasma pharmacokinetics after single oral administration
- Assay type: in vivo
- EXPERIMENTAL_PARAMETERS: C57B16, mouse, Table 4, male mice, oral 3 mg/kg
- Description: The pharmacokinetics of compound 70 was evaluated after a single oral administration (3 mg/kg) in male C57B16 mice on a commercial rodent diet and water ad libitum prior to the study. Compound plasma levels were determined by LC-MS/MS and the pharmacokinetic parameters were determined using WinNonlin software (Pharsight Co., Mountain View, Calif.). […] Samples were centrifuged at 4° C. at 13,000 rpm for 5 min followed by extracted with acetonitrile and then analyzed. […]
QUANTITY_KIND: AUC(0-inf) (ng·h/mL)

# COMPOUND, ENDPOINT_RESULT
records = [
    ("OC1(c2ccc(-c3cnc4c(-c5ccnc6ccccc56)cnn4c3)cc2)CCNCC1 [Compound 70]", 143),
]

====

- ASSAY_SUMMARY: Plasma pharmacokinetics after single oral administration
- Type: in vivo
- EXPERIMENTAL_PARAMETERS: C57B16, mouse, Table 4, male mice, oral 3 mg/kg

# COMPOUND, Cmax (nM)
records = [
    ("OC1(c2ccc(-c3cnc4c(-c5ccnc6ccccc56)cnn4c3)cc2)CCNCC1 [Compound 70]", 100),
]

====

- ASSAY_SUMMARY: Plasma pharmacokinetics after single oral administration
- Type: in vivo
- EXPERIMENTAL_PARAMETERS: C57B16, mouse, Table 5, male mice, oral 3 mg/kg

# MOLECULE, Tmax [h]
data = [
    ("Cl.c1ccc2c(-c3cnn4cc(-c5ccc(N6CCNCC6)cc5)cnc34)ccnc2c1 [13•HCl]", 1),
]

====

- ASSAY_SUMMARY: Plasma pharmacokinetics after single oral administration
- Format: in vivo
- EXPERIMENTAL_PARAMETERS: C57B16, mouse, Table 5, male mice, oral 3 mg/kg
QUANTITY_KIND: half-life

# MOLECULE, QUANTITY_KIND, ENDPOINT_RESULT
data = [
    ("Cl.c1ccc2c(-c3cnn4cc(-c5ccc(N6CCNCC6)cc5)cnc34)ccnc2c1 [13•HCl]", "half-life", "1.1 h"),
]

====

- ASSAY_SUMMARY: Plasma pharmacokinetics after single bolus intraperitoneal administration
- Assay type: in vivo, C57B16 mice
- EXPERIMENTAL_PARAMETERS: C57B16, mouse, Table 3, male mice, IP 3 mg/kg
Where a name gives a salt, the structure may show the parent alone.
Attribute: half-life

# COMPOUND, half-life [h]
rows = [
    ("c1ccc2c(-c3cnn4cc(-c5ccc(N6CCNCC6)cc5)ccc34)ccnc2c1 [37•HCl]", 2.2),
    ("COC1(c2ccc(-c3cnc4c(-c5ccnc6ccccc56)cnn4c3)cc2)CCNCC1 [44•HCl]", 1.4),
]

====

- ASSAY_SUMMARY: Plasma pharmacokinetics after single bolus intraperitoneal administration
- Format: in vivo, C57B16 mice
- EXPERIMENTAL_PARAMETERS: C57B16, mouse, Table 3, male mice, IP 3 mg/kg, read-out: tmax
Structures can show the parent of a compound that is named as a salt.
QUANTITY_KIND: Tmax

# MOLECULE, QUANTITY_KIND, ENDPOINT_RESULT
measured = [
    ("COC1(c2ccc(-c3cnc4c(-c5ccnc6ccccc56)cnn4c3)cc2)CCNCC1 [44•HCl]", "Tmax", "< 15 min"),
    ("c1ccc2c(-c3cnn4cc(-c5ccc(N6CCNCC6)cc5)ccc34)ccnc2c1 [37•HCl]", "Tmax", "< 15 min"),
]

====

- ASSAY_SUMMARY: Plasma pharmacokinetics after single bolus intraperitoneal administration
- Format: in vivo, C57B16 mice
- EXPERIMENTAL_PARAMETERS: C57B16, mouse, female mice, IP 3 mg/kg, read-out: tmax
QUANTITY_KIND: Tmax

# MOLECULE, ENDPOINT_RESULT
measured = [
    ("c1ccc2c(-c3cnn4cc(-c5ccc(N6CCNCC6)cc5)cnc34)ccnc2c1 [Compound 13]", "< 5 min"),
]

====

- ASSAY_SUMMARY: Plasma pharmacokinetics after single oral administration
- Format: in vivo
- EXPERIMENTAL_PARAMETERS: C57B16, mouse, Table 5, male mice, oral 3 mg/kg

# COMPOUND, UNIT_DESCRIPTOR, Cmax
records = [
    ("Cl.c1ccc2c(-c3cnn4cc(-c5ccc(N6CCNCC6)cc5)cnc34)ccnc2c1 [13•HCl]", "nM", 690),
]

====

- Test system: PDGFR-mediated signaling
- ASSAY_SUMMARY: PDGF-induced AKT phosphorylation, cellular ELISA in PaSMCs
- Assay type: cell-based, murine
- EXPERIMENTAL_PARAMETERS: Mus musculus, PASMC; compounds 10 min, then PDGF 30 min; FIG. 2; read-out: functional IC50, PDGF-induced AKT phosphorylation

# MOLECULE, IC50
rows = [
    ("c1ccc2c(-c3cnn4cc(-c5ccc(N6CCNCC6)cc5)cnc34)ccnc2c1 [Compound 13]", "~2000 nM"),
    ("c1cc(-c2cnn3cc(-c4ccc(OCCN5CCCCC5)cc4)cnc23)ccn1 [Dorsomorphin, reference compound]", "~500 nM"),
]

====

- ASSAY_SUMMARY: Plasma pharmacokinetics after single bolus intraperitoneal administration
- Format: in vivo, C57B16 mice
- EXPERIMENTAL_PARAMETERS: C57B16, mouse, male mice, IP 3 mg/kg, read-out: tmax
QUANTITY_KIND: Tmax

# CHEMICAL_STRING, QUANTITY_KIND, ENDPOINT_RESULT
measured = [
    ("c1ccc2c(-c3cnn4cc(-c5ccc(N6CCNCC6)cc5)cnc34)ccnc2c1", "Tmax", "< 5 min"),
]

====

Attribute: Cmax
- ASSAY_SUMMARY: Plasma pharmacokinetics after single bolus intraperitoneal administration
- Assay type: in vivo, C57B16 mice
- EXPERIMENTAL_PARAMETERS: C57B16, mouse, Table 3, male mice, IP 3 mg/kg
Counter-ions that a name gives are not always drawn.
QUANTITY_KIND: Cmax (µM)

# COMPOUND, QUANTITY_KIND, ENDPOINT_RESULT
rows = [
    ("c1ccc2c(-c3cnn4cc(-c5ccc(N6CCNCC6)cc5)ccc34)ccnc2c1 [37•HCl]", "Cmax", 0.29),
    ("COC1(c2ccc(-c3cnc4c(-c5ccnc6ccccc56)cnn4c3)cc2)CCNCC1 [44•HCl]", "Cmax", 0.66),
]

====

- ASSAY_SUMMARY: Microsomal stability in pooled mouse liver microsomes
- Assay type: in vitro ADME
- EXPERIMENTAL_PARAMETERS: 0.5 mg/mL microsome protein, 1 mM NADPH, read-out: intrinsic clearance (CLint) in mouse liver microsomes
QUANTITY_KIND: microsomal CLint at 3 μM (µL/min/mg)

# MOLECULE, QUANTITY_KIND, ENDPOINT_RESULT
data = [
    ("c1cc(-c2cnn3cc(-c4ccc(OCCN5CCCCC5)cc4)cnc23)ccn1 [Dorsomorphin, reference compound]", "microsomal CLint at 3 μM", 133),
    ("c1ccc2c(-c3cnn4cc(-c5ccc(N6CCNCC6)cc5)cnc34)ccnc2c1 [Compound 13]", "microsomal CLint at 3 μM", 16.9),
]

====

- ASSAY_SUMMARY: Plasma pharmacokinetics after single oral administration
- Format: in vivo
- EXPERIMENTAL_PARAMETERS: C57B16, mouse, Table 4, male mice, oral 3 mg/kg
QUANTITY_KIND: Tmax (min)

# CHEMICAL_STRING, ENDPOINT_RESULT
data = [
    ("OC1(c2ccc(-c3cnc4c(-c5ccnc6ccccc56)cnn4c3)cc2)CCNCC1", 15),
]
